pIC50: −log10 of the molar value.
Several publications report pIC50 on UniProt:Q14123; those values are gathered here.
recorded-endpoint: pIC50

>>> reported_value("CC(C)c1ncc2c(=O)n(C)c(Cc3ccc(-c4cccc(F)n4)cc3)cn12")
7.03

a: COc1ncccc1-c1cc(NCc2ncn(C)n2)c2c(C(C)C)nn(C)c2n1
b: CCCn1c(C)cn2c(C3CCOCC3)ncc2c1=O
c: Cc1nn(C(C)C)c2c3cc(nc12)-c1cccnc1OCCOCCOc1ncccc1CN3
Lookup: Ascending sort, pIC50. // format: requested-order list of labels
Found: b, a, c
(b: 6.37, a: 7.35, c: 7.80)

P: COc1ccc2c(N3CC[C@@H]4OCC[C@@H]43)ncnc2c1OC (single isomer, unassigned)
Q: COc1ccc2c(N[C@@H]3COC[C@H]3O)ncnc2c1OC (relative stereo)
Lookup: Please state the entry with greater pIC50 among P and Q . Output the label that corresponds to your choice.
Found: P

I: CCOc1ncccc1-c1cc(NCc2cn(C)cn2)c2c(C(C)C)nc(C)n2n1
II: Cc1cnc(-c2cc(NCc3ncn(C)n3)c3c(C(C)C)nn(C)c3n2)s1
III: COc1cnccc1-c1cc(N[C@@H]2CCOC2)c2c(cnn2C(C)C)n1
Lookup: Ascending sort, pIC50. // format: requested-order list of labels
Found: III, II, I
(III: 5.59, II: 6.82, I: 8.59)
